Data credit: patent US7074789B2

The following compounds are listed with their measured pIC50 values.
- tgt: Ret-1 (Homo sapiens)
- Construct: Kinases are expressed as either kinase domains or full length constructs; made in house
- Sequence (P07949 29-1114): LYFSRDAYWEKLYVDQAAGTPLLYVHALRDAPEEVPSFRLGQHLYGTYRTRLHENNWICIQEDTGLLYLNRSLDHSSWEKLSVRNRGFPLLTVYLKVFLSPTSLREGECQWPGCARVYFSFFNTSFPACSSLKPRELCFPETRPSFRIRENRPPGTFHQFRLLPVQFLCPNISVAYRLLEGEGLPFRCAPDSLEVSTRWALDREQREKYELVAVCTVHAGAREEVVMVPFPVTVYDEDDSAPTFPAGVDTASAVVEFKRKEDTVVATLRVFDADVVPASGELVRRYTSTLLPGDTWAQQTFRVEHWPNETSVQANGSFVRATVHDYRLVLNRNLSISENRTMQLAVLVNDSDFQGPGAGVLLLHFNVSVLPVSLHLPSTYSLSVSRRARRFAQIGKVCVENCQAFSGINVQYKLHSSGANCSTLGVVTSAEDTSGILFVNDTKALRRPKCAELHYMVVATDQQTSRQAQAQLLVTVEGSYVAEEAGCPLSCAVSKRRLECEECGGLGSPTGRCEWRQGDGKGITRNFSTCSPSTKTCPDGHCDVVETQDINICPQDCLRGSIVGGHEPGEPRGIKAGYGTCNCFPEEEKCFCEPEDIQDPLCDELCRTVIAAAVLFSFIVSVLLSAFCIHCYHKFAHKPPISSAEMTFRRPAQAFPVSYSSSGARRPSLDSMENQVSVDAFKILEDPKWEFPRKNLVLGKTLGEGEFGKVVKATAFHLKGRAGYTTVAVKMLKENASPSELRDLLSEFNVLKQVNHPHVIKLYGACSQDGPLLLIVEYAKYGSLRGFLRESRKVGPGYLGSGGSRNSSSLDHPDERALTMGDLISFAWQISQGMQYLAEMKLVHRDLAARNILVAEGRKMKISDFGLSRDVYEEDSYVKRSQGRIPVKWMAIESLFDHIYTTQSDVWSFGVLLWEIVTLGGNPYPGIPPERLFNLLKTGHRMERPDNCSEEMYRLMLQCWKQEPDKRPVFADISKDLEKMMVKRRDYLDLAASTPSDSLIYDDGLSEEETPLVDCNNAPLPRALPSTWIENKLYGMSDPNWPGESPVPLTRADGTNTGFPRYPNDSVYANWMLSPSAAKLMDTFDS
- method: Kinase inhibition assay (33P transfer), Ret
- Type: biochemical
- condition context: Table 6, Ret-1 kinase inhibition class
pIC50: −log10 of the molar value.

Please review the entries below; each comes with its answer.
[[record]]
compound = "COc1cc(Nc2ncnc(-n3c(NCc4ccc(F)cc4)nc4ccccc43)n2)cc(OC)c1OC"
meas_value = "> 6.10"

[[record]]
compound = "COc1cc(Nc2ncnc(Nc3ccc(C(=O)O)cc3)n2)cc(OC)c1OC"
meas_value = "< 4.95"

[[record]]
compound = "CCc1cccc(Nc2ncnc(-n3c(N)nc4ccccc43)n2)c1"
meas_value = "> 5.92"

[[record]]
compound = "COc1ccc(Nc2ncnc(Nc3ccc(C)c(O)c3)n2)cc1OC"
meas_value = "> 5.95"

[[record]]
compound = "Nc1nc2ccccc2n1-c1ncnc(Nc2ccc(N3CCOCC3)cc2)n1"
meas_value = "5.21 to 5.99"

[[record]]
compound = "COCCOc1ccc(Nc2ncnc(Nc3ccc4[nH]ccc4c3)n2)cc1OCCOC"
meas_value = "5.27 to 6.05"

[[record]]
compound = "COc1cc(Nc2ncnc(-n3c(=O)[nH]c4ccccc43)n2)cc(OC)c1OC"
meas_value = "< 4.94"

[[record]]
compound = "COc1ccc(Sc2ncnc(Nc3cc(OC)c(OC)c(OC)c3)n2)cc1"
meas_value = "5.06 to 5.22"


Could you share which pIC50 value was measured for COc1cc(Nc2ncnc(Nc3ccc4c(cnn4Cc4ccccc4)c3)n2)cc(OC)c1OC ?
> 6.08

---

- tgt: EGFR (Homo sapiens, UniProt P00533)
- Construct: Kinases are expressed as either kinase domains or full length constructs; made in house
- Sequence (P00533 25-1210, species assumed): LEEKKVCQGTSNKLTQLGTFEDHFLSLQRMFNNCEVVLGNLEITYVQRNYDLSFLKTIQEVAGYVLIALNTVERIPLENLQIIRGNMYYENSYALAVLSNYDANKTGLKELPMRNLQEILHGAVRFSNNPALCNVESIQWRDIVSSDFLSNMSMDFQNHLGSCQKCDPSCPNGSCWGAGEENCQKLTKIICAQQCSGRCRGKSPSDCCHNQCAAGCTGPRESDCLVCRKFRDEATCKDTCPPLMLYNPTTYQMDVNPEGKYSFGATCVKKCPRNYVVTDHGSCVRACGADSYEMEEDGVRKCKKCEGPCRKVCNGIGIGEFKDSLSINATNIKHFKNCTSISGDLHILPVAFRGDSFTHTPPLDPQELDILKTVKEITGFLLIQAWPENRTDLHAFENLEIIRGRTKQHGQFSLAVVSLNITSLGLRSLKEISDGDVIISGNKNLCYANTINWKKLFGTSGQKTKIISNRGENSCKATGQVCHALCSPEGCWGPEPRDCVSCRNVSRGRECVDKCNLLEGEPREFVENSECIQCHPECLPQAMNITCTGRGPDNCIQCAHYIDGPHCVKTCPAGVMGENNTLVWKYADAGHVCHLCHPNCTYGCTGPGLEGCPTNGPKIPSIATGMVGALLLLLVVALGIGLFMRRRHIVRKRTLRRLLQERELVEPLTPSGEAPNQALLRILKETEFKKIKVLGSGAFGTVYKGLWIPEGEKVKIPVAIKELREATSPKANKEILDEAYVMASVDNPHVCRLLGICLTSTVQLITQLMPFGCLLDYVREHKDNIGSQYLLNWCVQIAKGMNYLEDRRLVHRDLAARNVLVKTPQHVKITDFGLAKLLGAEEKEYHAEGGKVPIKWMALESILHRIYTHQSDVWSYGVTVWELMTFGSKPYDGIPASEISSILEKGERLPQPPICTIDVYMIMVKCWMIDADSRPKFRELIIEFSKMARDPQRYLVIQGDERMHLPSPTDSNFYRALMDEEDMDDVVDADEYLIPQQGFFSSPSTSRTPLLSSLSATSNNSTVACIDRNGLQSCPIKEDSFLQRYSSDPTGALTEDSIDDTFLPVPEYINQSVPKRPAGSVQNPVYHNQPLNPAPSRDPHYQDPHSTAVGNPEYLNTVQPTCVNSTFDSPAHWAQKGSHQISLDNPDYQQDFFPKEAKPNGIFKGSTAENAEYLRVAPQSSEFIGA
- method: Kinase inhibition assay (33P transfer), EGFR
- Type: biochemical
- condition context: Table 2, class symbols A-E; read-out: EGFR-1
pIC50: −log10 of the molar value.
The following compounds are listed with their measured pIC50 values.

Please review the entries below; each comes with its answer.
[[record]]
compound = "COc1cc(Nc2ncnc(N3CCCc4c(Cl)cccc43)n2)cc(OC)c1OC [Compound 643]"
meas_value = "> 6.03"

[[record]]
compound = "COc1cc(Nc2ncnc(-c3cccnc3Nc3ccccc3)n2)cc(OC)c1OC [Compound 1092]"
meas_value = "< 4.98"

[[record]]
compound = "c1ccc(Cn2ncc3cc(Nc4ncnc(Nc5cccc(Cn6ccnn6)c5)n4)ccc32)cc1 [Compound 676]"
meas_value = "> 6.07"

[[record]]
compound = "COc1ccc(Nc2ncnc(Nc3ccc4c(c3)CCC4)n2)cc1OC [Compound 896]"
meas_value = "5.18 to 5.96"

[[record]]
compound = "Fc1ccc(Nc2ncnc(Nc3ccc4c(cnn4Cc4ccccc4)c3)n2)cc1F [Compound 902]"
meas_value = "> 6.03"


// next item, pIC50 requested
Could you share which pIC50 value was measured for COc1ccc(Nc2ncnc(N(C)[C@H](C)c3ccccc3)n2)cc1OC [Compound 803] ?
5.18 to 5.96

---

The following compounds are listed with their measured IC50 values.
- tgt: Itk (Homo sapiens)
- Construct: Kinases are expressed as either kinase domains or full length constructs; made in house
- Sequence (Q08881 whole entry, species assumed, the tested form may be a part): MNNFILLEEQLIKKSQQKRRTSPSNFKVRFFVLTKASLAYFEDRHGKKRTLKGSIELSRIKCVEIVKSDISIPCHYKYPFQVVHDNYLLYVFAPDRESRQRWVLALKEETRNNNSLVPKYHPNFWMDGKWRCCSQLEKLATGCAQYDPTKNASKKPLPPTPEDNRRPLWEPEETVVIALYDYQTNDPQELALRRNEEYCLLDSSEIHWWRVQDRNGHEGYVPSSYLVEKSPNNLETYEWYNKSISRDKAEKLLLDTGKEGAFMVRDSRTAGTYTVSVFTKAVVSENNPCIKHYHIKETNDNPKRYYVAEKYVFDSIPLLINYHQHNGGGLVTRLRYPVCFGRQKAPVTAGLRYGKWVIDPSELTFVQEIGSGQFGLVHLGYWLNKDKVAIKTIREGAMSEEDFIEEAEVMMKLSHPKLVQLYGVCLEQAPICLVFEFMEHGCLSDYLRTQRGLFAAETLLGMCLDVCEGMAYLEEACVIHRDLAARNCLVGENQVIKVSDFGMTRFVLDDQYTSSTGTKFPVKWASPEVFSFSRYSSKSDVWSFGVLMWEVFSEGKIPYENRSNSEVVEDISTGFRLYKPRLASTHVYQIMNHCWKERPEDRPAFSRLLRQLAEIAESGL
- method: Kinase inhibition assay (33P transfer), Itk
- Format: biochemical
- condition context: read-out: Itk-1

Please review the entries below; each comes with its answer.
[[record]]
compound = "COc1cc(Nc2ncnc(Nc3cc(-c4ccc(C(=O)NCCc5ccccc5)cc4)n[nH]3)n2)cc(OC)c1OC"
meas_value = "4.24 to 6.18 µM"

[[record]]
compound = "COC(=O)c1ccc(-c2cc(Nc3ncnc(Nc4cccc(C(N)=O)c4)n3)[nH]n2)cc1"
meas_value = "5.58 to 8.13 µM"

[[record]]
compound = "COc1ccc(CNc2ncnc(Nc3ccc4c(cnn4Cc4ccccc4)c3)n2)cc1OC"
meas_value = "> 9.62 µM"

[[record]]
compound = "COc1cc(Nc2ncnc(Nc3[nH]ncc3-c3cccc(Cl)c3)n2)cc(OC)c1OC"
meas_value = "> 9.91 µM"

[[record]]
compound = "Cc1ccc2c(c1)CCCN2c1ncnc(Nc2ccc3c(c2)C(=O)OC3)n1"
meas_value = "> 12.1 µM"


Could you share which IC50 value was measured for COc1cc(Nc2ncnc(-n3c(Nc4cccc(F)c4)nc4ccccc43)n2)cc(OC)c1OC ?
> 9.23 µM

Could you share which IC50 value was measured for O=c1[nH]c2ccccc2n1-c1ncnc(Nc2nccc3ccccc23)n1 ?
> 12.7 µM

Could you share which IC50 value was measured for COc1ccc(Nc2ncnc(NCCCOC(C)C)n2)cc1OC ?
> 13 µM

Could you share which IC50 value was measured for CN(c1cccc(Cl)c1)c1ncnc(Nc2ccc(F)c(Cl)c2)n1 ?
> 12.4 µM

Could you share which IC50 value was measured for Nc1nc2ccccc2n1-c1ncnc(Nc2ccc(-c3ccccc3)cc2)n1 ?
9.22 to 11.9 µM
